B1: NELF-E aptamer (parent)
chain: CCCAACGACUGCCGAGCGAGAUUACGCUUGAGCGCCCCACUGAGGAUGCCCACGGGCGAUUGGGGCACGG

Variants of: B1
Assay: HiTS-RAP
Conditions: with NELF-E (Drosophila)
# Lookup of reported pKd keyed by entry
As a rule, pKd stands for the negative log10 of the concentration, concentration in M.

Below, 5 variants whose answers are already recorded.
MUTATION_DESCRIPTOR	REPORTED_MEASUREMENT
U23G G30U	8.13
U29G C33U	8.22
A5U G14U	8.20
G7U G65U	8.13
A4U C6G	8.22

Proceeding to the next variant to report its pKd.
stdin: Given the variant G7U U28G , what is its reported pKd?
stdout: 8.05
